Data provenance: ChEMBL document CHEMBL3232973

Assay: Competitive binding affinity to yeast RRM1 assessed as reduction in CDP NMR signals by STD-NMR spectroscopy
Design: species or system Saccharomyces cerevisiae
METRIC: Ki (µM)
Supply the numeric figure in µM, leaving out any unit text.

Item under review: `Nc1ccn([C@@H]2O[C@H](CN3CCn4nccc4C3)[C@@H](O)C2(F)F)c(=O)n1` . Reported Ki?
150

====

Experiment: Binding affinity to yeast RRM1 assessed as reduction of unbound compound level by line-broadening NMR spectroscopy
Set-up: species or system Saccharomyces cerevisiae
METRIC: Kd

For the compound shown here, `Nc1ccn([C@@H]2O[C@H](CN3CCn4nccc4C3)[C@@H](O)C2(F)F)c(=O)n1` , give the reported Kd.
200 µM
